Values compiled from patent US12509441B2.

Target: EGFR exon 20 insertion mutant kinase D770-N771insNPG (Homo sapiens, UniProt P00533, INS770NPG)
Sequence (P00533 with tags, fused parts or gaps INS770NPG limits assumed): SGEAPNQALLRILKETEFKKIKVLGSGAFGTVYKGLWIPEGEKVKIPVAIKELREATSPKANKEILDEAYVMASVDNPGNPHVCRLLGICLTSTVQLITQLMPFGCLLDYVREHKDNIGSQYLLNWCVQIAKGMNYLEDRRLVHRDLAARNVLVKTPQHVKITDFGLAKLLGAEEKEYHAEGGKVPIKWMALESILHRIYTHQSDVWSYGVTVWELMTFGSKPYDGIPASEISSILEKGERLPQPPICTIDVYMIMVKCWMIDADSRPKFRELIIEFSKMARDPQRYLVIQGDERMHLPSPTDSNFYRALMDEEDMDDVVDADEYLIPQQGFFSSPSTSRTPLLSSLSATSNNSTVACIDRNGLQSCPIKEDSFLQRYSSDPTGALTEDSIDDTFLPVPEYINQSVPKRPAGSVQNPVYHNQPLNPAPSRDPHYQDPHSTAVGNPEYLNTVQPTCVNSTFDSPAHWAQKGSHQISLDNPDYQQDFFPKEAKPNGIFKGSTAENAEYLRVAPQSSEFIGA
Experiment: Kinase activity assay (33P-ATP filter-binding), EGFR exon 20 insertion mutant kinase D770-N771insNPG
Conditions: ATP Km concentration; 10 concentrations
measured.endpoint: IC50 (nM)

Illustrative cases are given below, each with its answer.
- [2H]C([2H])([2H])n1cc(-c2nc(Nc3cc(NC(=O)C=C)c(N(C)CCN(C)C)nc3OCC(F)(F)F)ncc2CO)c2ccccc21 [Example 10]: 7.66
- [2H]C([2H])([2H])n1cc(-c2nc(Nc3cc(NC(=O)C=C)c(N(C)CCN(C)C)nc3OCC(F)(F)F)ncc2-c2nnc(C)o2)c2ccccc21 [Example 3]: 1.48

I = C=CC(=O)Nc1cc(Nc2ncc(C(=O)OC(C)C)c(-n3ncc4c3-c3ccccc3C4)n2)c(OC)cc1N(C)CCN(C)C [Example 11]
II = C=CC(=O)Nc1cc(Nc2ncc(C(=O)OC(C)C)c(-n3ncc4c3Cc3ccccc3-4)n2)c(OC)cc1N(C)CCN(C)C [Example 6]
III = C=CC(=O)Nc1cc(Nc2ncc(C(=O)OC(C)C)c(-c3nn(C)c4c3Cc3ccccc3-4)n2)c(OC)cc1N(C)CCN(C)C [Example 14]
# sort list by recorded IC50, greatest to least Reply with the item labels sorted in the order that was asked for.
I, III, II
(I: 7360 nM, III: 10.1 nM, II: 1.38 nM)
